Every entry's value here was drawn from paper PMC6641592.

Below, each entry is listed alongside its reported Km.
target: TLP-ste (C288L/N181C) (Geobacillus stearothermophilus, UniProt P06874, C520L/N413C); conditions: correction: none; Michaelis-Menten fit; mean ± SD, triplicate
Property name: Km (µM)

substance="CF-PAGLAC(Cy5)-NH2 [4aa-Cy5]" experimental_system="TLP-ste (C288L/N181C) (Geobacillus stearothermophilus, UniProt P06874, C520L/N413C)" readout_unit=µM data_value=1.6
substance="CF-PSVAGLAGGC(Cy5)-NH2 [8aa-Cy5]" experimental_system="TLP-ste (C288L/N181C) (Geobacillus stearothermophilus, UniProt P06874, C520L/N413C)" readout_unit=µM data_value=8.2
substance="CF-PSVAGLAGGC(AF647)-NH2 [8aa-AF647]" experimental_system="TLP-ste (C288L/N181C) (Geobacillus stearothermophilus, UniProt P06874, C520L/N413C)" readout_unit=µM data_value=17
substance="CF-PAGLAC(AF674)-NH2 [4aa-AF647]" experimental_system="TLP-ste (C288L/N181C) (Geobacillus stearothermophilus, UniProt P06874, C520L/N413C)" readout_unit=µM data_value=14.3
substance="CF-PVAGLAGC(Cy5)-NH2 [6aa-Cy5]" experimental_system="TLP-ste (C288L/N181C) (Geobacillus stearothermophilus, UniProt P06874, C520L/N413C)" readout_unit=µM data_value=6.9

* * *

target: TLP-ste (C288L/N181C) (Geobacillus stearothermophilus, UniProt P06874, C520L/N413C); settings: corrected for IFE and FRET efficiency; Michaelis-Menten fit; 1 nM TLP-ste, MOPS pH 7.4, 10% DMSO, 30 °C; mean ± SD, triplicate
Recorded vmax for the following substances
Property name: vmax

substance="CF-PSVAGLAGGC(AF647)-NH2 [8aa-AF647]" experimental_system="TLP-ste (C288L/N181C) (Geobacillus stearothermophilus, UniProt P06874, C520L/N413C)" data_value="57.0 ± 27.0 ×10^–4 μM s^–1"
substance="CF-PVAGLAGC(Cy5)-NH2 [6aa-Cy5]" experimental_system="TLP-ste (C288L/N181C) (Geobacillus stearothermophilus, UniProt P06874, C520L/N413C)" data_value="29.6 ± 26.6 ×10^–4 μM s^–1"
substance="CF-PAGLAC(AF674)-NH2 [4aa-AF647]" experimental_system="TLP-ste (C288L/N181C) (Geobacillus stearothermophilus, UniProt P06874, C520L/N413C)" data_value="7.0 ± 3.8 ×10^–4 μM s^–1"
substance="CF-PAGLAC(Cy5)-NH2 [4aa-Cy5]" experimental_system="TLP-ste (C288L/N181C) (Geobacillus stearothermophilus, UniProt P06874, C520L/N413C)" data_value="3.7 ± 1.6 ×10^–4 μM s^–1"
substance="CF-PSVAGLAGGC(Cy5)-NH2 [8aa-Cy5]" experimental_system="TLP-ste (C288L/N181C) (Geobacillus stearothermophilus, UniProt P06874, C520L/N413C)" data_value="78.2 ± 48.2 ×10^–4 μM s^–1"

* * *

target: TLP-ste (C288L/N181C) (Geobacillus stearothermophilus, UniProt P06874, C520L/N413C); details: correction: IFE only; calculated from kcat and KM
Each item that follows carries a reported kcat/KM.
Property name: kcat/KM (M⁻¹ s⁻¹)

substance="CF-PSVAGLAGGC(Cy5)-NH2 [8aa-Cy5]" experimental_system="TLP-ste (C288L/N181C) (Geobacillus stearothermophilus, UniProt P06874, C520L/N413C)" data_value=426100
substance="CF-PAGLAC(Cy5)-NH2 [4aa-Cy5]" experimental_system="TLP-ste (C288L/N181C) (Geobacillus stearothermophilus, UniProt P06874, C520L/N413C)" data_value=145800
substance="CF-PVAGLAGC(Cy5)-NH2 [6aa-Cy5]" experimental_system="TLP-ste (C288L/N181C) (Geobacillus stearothermophilus, UniProt P06874, C520L/N413C)" data_value=247400
substance="CF-PSVAGLAGGC(AF647)-NH2 [8aa-AF647]" experimental_system="TLP-ste (C288L/N181C) (Geobacillus stearothermophilus, UniProt P06874, C520L/N413C)" data_value=70500
substance="CF-PAGLAC(AF674)-NH2 [4aa-AF647]" experimental_system="TLP-ste (C288L/N181C) (Geobacillus stearothermophilus, UniProt P06874, C520L/N413C)" data_value=12900
